Biological target: Amine oxidase [flavin-containing] B (Homo sapiens)
Sequence (P27338 whole entry): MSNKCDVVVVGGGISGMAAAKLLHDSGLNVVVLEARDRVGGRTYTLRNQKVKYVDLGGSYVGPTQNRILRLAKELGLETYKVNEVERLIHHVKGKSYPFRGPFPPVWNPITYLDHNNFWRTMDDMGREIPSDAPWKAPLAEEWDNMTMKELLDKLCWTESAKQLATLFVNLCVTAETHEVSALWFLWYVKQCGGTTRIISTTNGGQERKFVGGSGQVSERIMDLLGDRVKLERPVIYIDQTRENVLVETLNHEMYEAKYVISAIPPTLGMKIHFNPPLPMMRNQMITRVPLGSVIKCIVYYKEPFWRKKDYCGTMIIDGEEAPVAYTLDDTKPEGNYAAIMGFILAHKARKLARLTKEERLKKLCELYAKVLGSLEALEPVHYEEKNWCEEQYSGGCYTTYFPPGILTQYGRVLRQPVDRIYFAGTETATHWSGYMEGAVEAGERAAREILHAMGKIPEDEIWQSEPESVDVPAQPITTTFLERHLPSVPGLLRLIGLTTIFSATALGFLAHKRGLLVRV
Experiment: Inhibition of recombinant human MAO-B expressed in baculovirus infected BTI insect cells
Reported pIC50 values for a set of molecules
In simple prose, pIC50 is minus the logarithm base ten of a concentration in moles per litre.

Examples with their reported pIC50 follow.
C#CCN(C)CCCOc1cc(C#N)c(Cl)cc1Cl :: 4.42
C#CCN(C)CCCOc1cc(C)c(Cl)cc1Cl :: 3.91
C#CCN(C)CCCOc1cc(NS(C)(=O)=O)c(Cl)cc1Cl :: 4.16
C#CCN(C)CCCOc1cc(NC(C)=O)c(Cl)cc1Cl :: 3.45

Query: Hello, please tell me recorded pIC50 for this one: C#CCN(C)CCCOc1cc(NC=O)c(Cl)cc1Cl
Response: 4.60

Query: Hello, please tell me recorded pIC50 for this one: C#CCN(C)CCCOc1cc(O)c(Cl)cc1Cl
Response: 6.04

====

target: Amine oxidase [flavin-containing] A (Homo sapiens, UniProt P21397); test: Inhibition of recombinant human MAO-A expressed in baculovirus infected BTI insect cells
Sequence (P21397 whole entry): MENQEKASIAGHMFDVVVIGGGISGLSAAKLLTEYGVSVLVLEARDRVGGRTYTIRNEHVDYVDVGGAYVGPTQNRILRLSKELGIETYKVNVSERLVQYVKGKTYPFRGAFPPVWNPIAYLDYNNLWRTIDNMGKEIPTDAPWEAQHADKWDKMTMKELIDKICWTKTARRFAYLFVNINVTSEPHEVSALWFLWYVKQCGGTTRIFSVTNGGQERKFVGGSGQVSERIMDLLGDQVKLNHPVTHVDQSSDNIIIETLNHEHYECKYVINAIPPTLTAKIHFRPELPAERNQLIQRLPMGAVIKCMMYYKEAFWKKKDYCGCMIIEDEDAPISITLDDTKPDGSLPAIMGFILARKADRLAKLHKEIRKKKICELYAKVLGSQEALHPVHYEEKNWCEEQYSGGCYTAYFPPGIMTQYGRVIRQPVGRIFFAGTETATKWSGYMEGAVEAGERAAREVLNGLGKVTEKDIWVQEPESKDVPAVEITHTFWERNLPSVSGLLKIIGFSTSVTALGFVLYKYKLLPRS
Reported log10(IC50) values for a set of compounds
Form field - Quantity: IC50; Unit: nM; Scale: log10

C#CCN(C)CCCOc1cc(O)c(Cl)cc1Cl :: 1.39
C#CCN(CCO)CCCOc1cc(N)c(Cl)cc1Cl :: 2.88
C#CCN(C)CCCOc1cc(NC=O)c(Cl)cc1Cl :: 3.82

Query: Hello, please tell me recorded log10(IC50) for this one: C#CCN(C)C[C@H](O)COc1cc(N)c(Cl)cc1Cl
Response: 1.85

Query: Hello, please tell me recorded log10(IC50) for this one: C#CCN(C)CCCOc1cc(NC(C)=O)c(Cl)cc1Cl
Response: 3.94

Query: Hello, please tell me recorded log10(IC50) for this one: C#CCN(C)C[C@@H](O)COc1cc(N)c(Cl)cc1Cl
Response: 1.85

Query: Hello, please tell me recorded log10(IC50) for this one: C#CCN(C)CCCOc1cc(N)c(Cl)cc1Cl
Response: 1.17

Query: Hello, please tell me recorded log10(IC50) for this one: C#CCN(C)CCCOc1cc(C)c(Cl)cc1Cl
Response: 3.83

Query: Hello, please tell me recorded log10(IC50) for this one: C#CCN(C)CCCOc1cc(C#N)c(Cl)cc1Cl
Response: 2.01
